# growth annotations
# System: NCI-H460 lung
# protocol description: NCI-60 one-dose screen, 48 h (100 = growth as untreated, 0 = no growth, -100 = all killed)
# condition notes: 10 µM unless noted
This is part of a sample that, as a whole, favours compounds with a hit. Of some 83,000 tested, about 20% had one in any assay. The source made the active and inactive calls. How the source made its calls: active means growth percent below 10; inactive means the rest.

Some compounds with known growth results, for comparison:
- COC(=O)C(CC=O)C(=O)C(=O)Nc1cccc(C(F)(F)F)c1 (configuration not stated): 98.6% (inactive)
- COc1cc(NCCCCCNC(C)(C)C)c2ncccc2c1: 111% (inactive)
- CCCCCN1C=C/C(=C\C(=O)N(C)c2ccc(OC(F)(F)F)cc2)c2ccccc21: 101% (inactive)
- CCOC(=O)c1cc(C(=O)c2cc(OC)cc(OC)c2)n2ccc3ccccc3c12: 101% (inactive)
- CNC(=O)c1cncc(Cn2nc(C)c(NC(=O)c3ccc(COc4ccc(C(F)(F)F)cc4C)cc3)c2C)c1: 62% (inactive)
- COc1cc(CC(=O)n2ncc3ccc(N)cc32)cc(OC)c1OC: 102% (inactive)

Form: compound = C=C1C(=O)O[C@H]2[C@H]1CC/C(COC(=O)NCc1c[nH]c3ccc(F)cc13)=C\CC[C@@]1(C)O[C@@H]21 ; growth = 27.9% (inactive)

---

# Test system: NCI-H226 lung
# protocol description: NCI-60 one-dose screen, 48 h (100 = growth as untreated, 0 = no growth, -100 = all killed)
# condition notes: 10 µM unless noted
Compounds without any hit were thinned out: in the full panel of roughly 83,000, 20% have a hit. Calls of active or inactive are those of the source. The calls were made as follows: active = growth percent below 10; inactive = the rest.
# growth annotations

Some molecules with known growth results, for comparison:
• CCN(Cc1ccccc1)c1ccc(C=O)cc1 = 2.99% (active)
• COc1ccc(C(=O)NNc2nc(Cl)nc(N3CCN(C(c4ccccc4)c4ccccc4)CC3)n2)cc1 = 90.1% (inactive)
• CNC(=O)c1cncc(Cn2nc(C)c(NC(=O)c3ccc(COc4ccc(C(F)(F)F)cc4C)cc3)c2C)c1 = 58.1% (inactive)
• O=C(Nc1cccc(C(=O)N2CCc3ccc(Cl)cc32)c1)c1ccco1 = 60.2% (inactive)
• N=C(N)c1ccc(OCCCCCCCCCCOc2ccc(C(=N)N)cc2)cc1 = -71.7% (active)

Moving on to another molecule below.
Form: molecule = COc1cc(/C=C/c2cc(O)c(C(C)=O)c(O)c2)cc2c1O[C@]1(C)CC[C@@H](O)C(C)(C)[C@H]1C2 ; growth = 89% (inactive)

---

# Test system: NCI-H460 lung
# protocol description: NCI-60 one-dose screen, 48 h (100 = growth as untreated, 0 = no growth, -100 = all killed)
# condition notes: 10 µM unless noted
This is part of a sample that, as a whole, favours compounds with a hit. Of some 83,000 tested, about 20% had one in any assay.
# growth annotations
Reply with just the number (in %).

Some compounds with known growth results, for comparison:
* Nc1c(C(=O)Nc2ccnc3ccccc23)sc2nc3c(cc12)CN(Cc1ccccc1)CC3 | 87.4
* Fc1ccc(-c2cn3c(nc4ccccc43)c(-c3ccccc3)n2)cc1 | 98.2

Moving on to another compound below.
Form: compound = COc1ccc2c(c1)C(=O)CC(c1ccccc1OC)O2 (stereo not drawn) ; growth = 100
